target: CYP2D6 (Homo sapiens); test: Inhibition of CYP2D6 (unknown origin) expressed in insect cell microsomes at 1 uM using dibenzylfluorescein substrate by fluorescence based assay relative to control; assay type: ADME; conditions: insect cell microsomes expressing CYP2D6, probe dibenzylfluorescein
Sequence (P10635 whole entry): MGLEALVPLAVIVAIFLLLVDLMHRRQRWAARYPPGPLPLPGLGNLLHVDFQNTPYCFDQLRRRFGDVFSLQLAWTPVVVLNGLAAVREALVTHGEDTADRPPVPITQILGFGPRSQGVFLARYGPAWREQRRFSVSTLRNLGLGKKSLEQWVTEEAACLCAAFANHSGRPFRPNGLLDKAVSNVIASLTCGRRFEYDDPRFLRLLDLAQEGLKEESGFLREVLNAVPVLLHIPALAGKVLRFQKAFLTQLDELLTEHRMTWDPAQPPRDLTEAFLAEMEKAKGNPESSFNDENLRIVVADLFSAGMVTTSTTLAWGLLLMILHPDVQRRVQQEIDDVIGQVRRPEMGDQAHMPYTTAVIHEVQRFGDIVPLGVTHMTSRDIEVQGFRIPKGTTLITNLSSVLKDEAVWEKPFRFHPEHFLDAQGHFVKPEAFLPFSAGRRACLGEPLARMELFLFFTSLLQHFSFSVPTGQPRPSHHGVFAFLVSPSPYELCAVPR

| Compound | Output Unit | inhibition at 1 µM |
| --- | --- | --- |
| CC1=C(C(=O)OC(C)C)C(c2cocn2)n2c(nc3ccccc32)N1 (racemic) | % | 23 |
| CC1=C(C(=O)OC(C)C)C(c2ccoc2)n2c(nc3ccccc32)N1 (racemic) | % | 8 |
| CCOC(=O)C1=C(C)Nc2nc3ccccc3n2C1c1cocn1 (racemic) | % | 13 |
| CCOC(=O)C1=C(C)Nc2nc3ccccc3n2C1c1ncc[nH]1 (racemic) | % | 8 |
| CCOC(=O)C1=C(C)Nc2nc3ccccc3n2C1c1cnoc1 (racemic) | % | 6 |
| CC1=C(C(=O)OC(C)C)C(c2ccco2)n2c(nc3ccccc32)N1 (racemic) | % | 5 |

---

target: Adenosine receptor A2a (Homo sapiens, UniProt P29274); assay: Displacement [3H]ZM241385 from adenosine A2A receptor in human HeLa cell membranes at 1 uM incubated for 30 mins by scintillation counting method relative to control
Sequence (P29274 whole entry): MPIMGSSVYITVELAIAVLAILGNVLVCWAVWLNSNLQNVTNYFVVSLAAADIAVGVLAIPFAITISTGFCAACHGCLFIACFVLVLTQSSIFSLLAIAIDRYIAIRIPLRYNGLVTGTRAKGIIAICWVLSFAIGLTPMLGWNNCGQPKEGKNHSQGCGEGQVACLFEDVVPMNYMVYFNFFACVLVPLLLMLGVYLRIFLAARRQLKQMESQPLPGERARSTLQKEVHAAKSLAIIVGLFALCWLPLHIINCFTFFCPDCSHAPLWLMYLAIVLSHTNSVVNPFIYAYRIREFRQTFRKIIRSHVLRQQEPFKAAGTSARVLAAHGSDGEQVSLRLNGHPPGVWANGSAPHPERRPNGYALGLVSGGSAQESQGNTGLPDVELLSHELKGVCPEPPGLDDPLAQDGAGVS
inhibition: recorded values

| Molecule | inhibition, % |
| --- | --- |
| CC1=C(C(=O)OC(C)C)C(c2ccon2)n2c(nc3ccccc32)N1 (racemic) | 2 |
| CC1=C(C(=O)OC(C)C)C(c2cn[nH]c2)n2c(nc3ccccc32)N1 (racemic) | 40 |
| CCOC(=O)C1=C(C)Nc2nc3ccccc3n2C1c1cnoc1 (racemic) | 30 |
| CC1=C(C(=O)OC(C)C)C(c2cncs2)n2c(nc3ccccc32)N1 (racemic) | 3 |
| CCOC(=O)C1=C(C)Nc2nc3ccccc3n2C1c1cncs1 (racemic) | 1 |
| CC1=C(C(=O)OC(C)C)C(C2CCCC2)n2c(nc3ccccc32)N1 (racemic) | 2 |
| CC1=C(C(=O)OC(C)C)C(c2cnoc2)n2c(nc3ccccc32)N1 (racemic) | 2 |
| CC1=C(C(=O)OC(C)C)C(c2ccns2)n2c(nc3ccccc32)N1 (racemic) | 18 |
| CC1=C(C(=O)OC(C)C)C(c2cnsc2)n2c(nc3ccccc32)N1 (racemic) | 11 |
| CC1=C(C(=O)OC(C)C)C(c2ncc[nH]2)n2c(nc3ccccc32)N1 (racemic) | 4 |
| CC1=C(C(=O)OC(C)C)C(c2nccs2)n2c(nc3ccccc32)N1 (racemic) | 4 |
| CCOC(=O)C1=C(C)Nc2nc3ccccc3n2C1 | 11 |
| CC1=C(C(=O)OC(C)C)C(c2cc[nH]n2)n2c(nc3ccccc32)N1 (racemic) | 7 |
| CCOC(=O)C1=C(C)Nc2nc3ccccc3n2C1c1ccno1 (racemic) | 1 |
| CCOC(=O)C1=C(C)Nc2nc3ccccc3n2C1c1ccc(C)o1 (racemic) | 1 |
| CCOC(=O)C1=C(C)Nc2nc3ccccc3n2C1c1ccc[nH]1 (racemic) | 2 |
| CCOC(=O)C1=C(C)Nc2nc3ccccc3n2C1c1ccccc1 (racemic) | 9 |
| CC1=C(C(=O)OC(C)C)C(c2ccoc2)n2c(nc3ccccc32)N1 (racemic) | 22 |
| CC1=C(C(=O)OC(C)C)Cn2c(nc3ccccc32)N1 | 4 |
| CC1=C(C(=O)OC(C)C)C(c2cnco2)n2c(nc3ccccc32)N1 (racemic) | 38 |
| CC1=C(C(=O)OC(C)C)C(c2ccccc2)n2c(nc3ccccc32)N1 (racemic) | 3 |
| CC1=C(C(=O)OC(C)C)C(c2ccno2)n2c(nc3ccccc32)N1 (racemic) | 7 |
| CCOC(=O)C1=C(C)Nc2nc3ccccc3n2C1c1cscn1 (racemic) | 1 |
